# Test system: OVCAR-8 ovarian
# Experiment summary: NCI-60 one-dose screen, 48 h
# Run parameters: 10 µM unless noted
Compounds without any hit were thinned out: in the full panel of roughly 83,000, 20% have a hit. The source made the active and inactive calls. How the source made its calls: active means growth percent below 10; inactive means the rest.
Could you please pick one outcome from this set? yes for active, no for inactive

* C=C1C(=O)O[C@H]2[C@H]1CC/C(Cn1cc(Cc3c[nH]c4ccccc34)nn1)=C\CC[C@@]1(C)O[C@@H]21 | yes
* Cc1nn(-c2ccccc2)c2nc(C)n(-c3ccc(Br)cc3)c(=O)c12 | no
* C=C1CC[C@@H]2[C@](C)(COC(C)=O)[C@H](OC(C)=O)CC[C@@]2(C)[C@@H]1CC(NCc1ccc(F)cc1)C1=CCOC1=O (some centres undefined) | no
* Cc1cc(-c2nc3ccccc3s2)ccc1NC(=O)COc1ccc(Cl)cc1 | no
* Nc1cccc(NC(=O)C(=O)Nc2cccc(N)c2)c1 | no
* NC(=S)N/N=C/c1cc(-c2cccc(N)c2)ccn1 | no

Qu. Hello, I am checking results. What call was entered for NC(CC(=O)O)C(=O)OCc1ccccc1 (centres undefined) ?
Ans. no

Qu. Hello, I am checking results. What call was entered for `CC(C)(C)c1nn(-c2ccccc2)c2c1CC1(CN2Cc2ccc3c(c2)OCO3)C(=O)c2ccccc2C1=O` ?
Ans. no

Qu. Hello, I am checking results. What call was entered for `CC/C(=C(\c1ccc(O)cc1)c1ccc(OCCN(C)CCN(C)C(=O)CCCCC(=O)c2c(C)[nH]c(/C=C3\N=C(c4ccc[nH]4)C=C3OC)c2C)cc1)c1ccccc1` ?
Ans. no

---

# Tested on: SK-MEL-2 melanoma
# Experiment summary: NCI-60 one-dose screen, 48 h
# Run parameters: 10 µM unless noted
Compounds without any hit were thinned out: in the full panel of roughly 83,000, 20% have a hit. Calls of active or inactive are those of the source. How the source made its calls: active means growth percent below 10; inactive means the rest.
Could you please pick one outcome from this set? active, inactive

- COc1cccc(-c2nc3sccn3c2-c2ccnc(NCCCNS(=O)(=O)c3ccccc3)c2)c1: inactive
- CC(C)C1=C[C@@]23CC[C@@H]4[C@](C)(CCC[C@@]4(C)C(=O)OCC#CCN4CCCC4)[C@H]2C[C@@H]1[C@H]1C(=O)OC(=O)[C@H]13: inactive
- O=C1C(Cl)=C(Cl)C(=O)c2c1nc1n2CCCC1: inactive

Qu. Hello, I am checking results. What call was entered for `C[C@@H]1CCC2=C(CCC[C@]2(C)C(=O)O)[C@@]1(C)CCc1ccoc1` ?
Ans. inactive

Qu. Hello, I am checking results. What call was entered for CCCCN(CCCC)CCC(C)(O)c1cc2ccccc2c2ccccc12 (stereo not drawn) ?
Ans. inactive

Qu. Hello, I am checking results. What call was entered for `C=C1C(=O)O[C@H]2[C@H]1CC/C(Cn1cc(Cc3c[nH]c4ccccc34)nn1)=C\CC[C@@]1(C)O[C@@H]21` ?
Ans. inactive

Qu. Hello, I am checking results. What call was entered for `COc1ccc(-c2c3c(nc4n[nH]c(-c5ccc(Cl)cc5)c24)-c2ccccc2C(=O)C3=O)cc1` ?
Ans. active

Qu. Hello, I am checking results. What call was entered for `CC/C(=C(\c1ccccc1)c1ccc(OCCNC)cc1)c1ccccc1` ?
Ans. active

Qu. Hello, I am checking results. What call was entered for `C=C1C(=O)O[C@H]2[C@H]1CC/C(Cn1cc(Cn3ccc4ccccc43)nn1)=C\CC[C@@]1(C)O[C@@H]21` ?
Ans. inactive

Qu. Hello, I am checking results. What call was entered for `COc1ccc(-c2nc(Nc3cc(C)[nH]n3)c3ccccc3n2)cc1` ?
Ans. inactive

Qu. Hello, I am checking results. What call was entered for `CC[C@]12C=CCN3CC[C@@]4(c5ccc(OC)cc5N(C)[C@H]4[C@@](O)(C(=O)OC)[C@@H]1OC(=O)CCC(=O)N[C@@H](Cc1c[nH]c4ccccc14)C(=O)OC)[C@@H]32` ?
Ans. inactive

Qu. Hello, I am checking results. What call was entered for `c1c2c(cc3c1OCO3)Cc1cc3c(cc1Cc1cc4c(cc1C2)OCO4)OCO3` ?
Ans. inactive

Qu. Hello, I am checking results. What call was entered for `CC(C)[C@@H]1CC[C@]2(C(=O)NCCCCN=C(N)N)CC[C@]3(C)[C@H](CC[C@@H]4[C@@]5(C)CCC(=O)C(C)(C)[C@@H]5CC[C@]43C)[C@@H]12` ?
Ans. inactive

Qu. Hello, I am checking results. What call was entered for `CS(=O)(=O)c1ccc(-c2cnc3ccc(-c4cccc(S(C)(=O)=O)c4)nn23)cc1` ?
Ans. inactive

Qu. Hello, I am checking results. What call was entered for `CSc1ccc(N=C=C(c2ccccc2)c2ccccc2)cc1` ?
Ans. inactive

Qu. Hello, I am checking results. What call was entered for `COc1ccc(CNc2nccnn2)cc1` ?
Ans. inactive

Qu. Hello, I am checking results. What call was entered for `Brc1cccc(-c2nc(-c3ccc4c(c3)OCCO4)co2)c1` ?
Ans. inactive

Qu. Hello, I am checking results. What call was entered for N=S(=O)(NC(=O)c1ccc(Cl)cc1Cl)c1ccc(Br)s1 (stereo not drawn) ?
Ans. inactive

---

# Tested on: SNB-75 CNS
# Experiment summary: NCI-60 one-dose screen, 48 h (100 = growth as untreated, 0 = no growth, -100 = all killed)
# Run parameters: 10 µM unless noted
This is part of a sample that, as a whole, favours compounds with a hit. Of some 83,000 tested, about 20% had one in any assay.
Classification field: satisfied = growth at or over 80%; not satisfied = growth under 80%.

• O=S(=O)(NCCCNc1cc(-c2cn(-c3ccccc3)nc2-c2ccccc2)ccn1)c1ccc(C(F)(F)F)cc1 = not satisfied
• CCCCCCCCCCCCCCCCCCSC1=CC(=O)C(OC)=C(OC)C1=O = satisfied
• COC(=O)[C@H](C(C)C)n1c(=O)c2cc(OC)c(OC)cc2c2cnc3[nH]ccc3c21 = not satisfied
• Cc1cc(=O)oc2cc(Oc3nc(-c4cccs4)cn4c(-c5cccs5)cnc34)ccc12 = not satisfied
• CC/C=C\C[C@H](O)C/C=C1/C(=O)C=C[C@@H]1C/C=C\CCCC(=O)NC = not satisfied

Qu. Check the entry `COc1ccc(/C=c2/c(=O)[nH]c3nc4sc(C)c(C)c4c(=O)n23)cc1` : does growth equal or exceed 80%?
Ans. satisfied

Qu. Check the entry `O=C1Nc2ccccc2/C1=C/C(=N/c1nnc(-c2ccc(Cl)cc2)s1)c1ccccc1` : does growth equal or exceed 80%?
Ans. not satisfied

Qu. Check the entry `COc1ccc(/C=C/C(=O)c2c(O)c(C)c(O)c3c2OC2=CC(O)=C(C(C)=O)C(=O)[C@]23C)cc1` : does growth equal or exceed 80%?
Ans. not satisfied

Qu. Check the entry `CCOC(=O)c1c2ncccc2n2c(=O)n(-c3ccc(Cl)cc3)nnc12` : does growth equal or exceed 80%?
Ans. satisfied

---

# System: MDA-MB-435 melanoma
# Experiment summary: NCI-60 one-dose screen, 48 h (100 = growth as untreated, 0 = no growth, -100 = all killed)
# Run parameters: 10 µM unless noted
Compounds without any hit were thinned out: in the full panel of roughly 83,000, 20% have a hit.
Metric: growth (%)
State the answer as a number, implicitly in %.

- C[C@@H]1CC[C@@H]2[C@@H]1[C@H](OC(=O)/C=C/c1ccccc1)[C@]1(C3CCCCC3)C[C@@H](OC(=O)CO)[C@@]2(C)O1: 87.9
- Nc1cccc(-c2nc3sccn3c2-c2ccnc(NCCCNS(=O)(=O)c3ccc(C(F)(F)F)cc3)n2)c1: -14.8
- CNC(=O)c1cc(Oc2ccc3nc(NC(=O)Nc4ccc(N5CCC(N(C)C)CC5)cc4)sc3c2)ccn1: 98.8

As a next step, examine the compound that follows.
Qu. Dear colleague, please send me the reported growth for Nc1nc2c(c3ncccc13)C(c1cccc(Br)c1)Cc1ncccc1-2 (centres undefined) when you can.
Ans. 1.43

---

# Tested on: SW-620 colon
# Experiment summary: NCI-60 one-dose screen, 48 h (100 = growth as untreated, 0 = no growth, -100 = all killed)
# Run parameters: 10 µM unless noted
Compounds without any hit were thinned out: in the full panel of roughly 83,000, 20% have a hit.
// returns 0.0 unless growth is strictly below 30%, in which case 1.0

* COc1cc2nc3cc([N+](=O)[O-])ccc3c(NCCCNCC(C)(C)O)c2cc1OC | 1.0
* Cn1cc(-c2ccc(-c3cn(C)c4ncccc34)[nH]2)c2cccnc21 | 1.0

Qu. Is 30% strictly greater than the compound's reported growth? compound: `Oc1ccc(Nc2nccc(-c3ccc4ccccc4c3)n2)cc1`
Ans. 0.0

Qu. Is 30% strictly greater than the compound's reported growth? compound: `CC(C)(C)c1nn(-c2ccccc2)c2c1CC1(CN2Cc2ccc3c(c2)OCO3)C(=O)c2ccccc2C1=O`
Ans. 0.0

Qu. Is 30% strictly greater than the compound's reported growth? compound: C=C1CC2(OC1=O)C(=O)Nc1ccccc12 (stereo not given)
Ans. 1.0

Provenance of the data: PubChem BioAssay (NCI)
